- assay_info: enhancers of HSV replication in host cells, fold increase, host cell viability (AID 1956)
- recorded_conditions: HSV replication augmentation in cells; measured here: primary screen fold increase 10 uM, at 10 µM, stronger effect = higher value
Screen size: about 220,000 compounds; about 10 (0.005%) were called active. A selection follows.
Respond with true for fold increase values of 0.9 and above, false for values below.

Worked cases, answers included:
# compound, class_label
records = [
    ("CC1(c2nnc(-c3ccncc3)o2)CC(c2cccnc2)=NO1 (stereo unspecified)", "false"),
    ("COC(C[C@H](O)CC(=O)[C@@H](C)OCc1ccccc1)OC", "false"),
    ("CC1Cc2ccccc2N1CC(=O)Nc1ccc(S(N)(=O)=O)cc1 (stereo unspecified)", "true"),
]

## Input Does CCCc1ccc(C(=O)[C@@H]2[C@@H](C(C)=O)N3c4ccc(F)cc4C=C[C@@H]3[C@@]23C(=O)Nc2ccccc23)cc1 have a reported fold increase of at least 0.9?
## Output true

## Input Could you verify whether the entry C=C(C)COc1ccc(-c2nc(N)ncc2-c2ccccc2OC)c(O)c1 shows fold increase of no less than 0.9?
## Output true
